Source of measurements: patent US12064426B2

- TARGET OF ASSAY: Recombinant ROCK2 (amino acids 5-554) (Homo sapiens)
- Construct: ROCK2 (amino acids 5-554); by word order, ROCK2 from SignalChem
- TEST SUMMARY: ROCK inhibition assay, LANCE Ultra TR-FRET kinase assay (ROCK2)
- RUN CONDITIONS: 4 μM ATP, 50 nM ULight-CREBtide substrate
- Protocol: Kinase IC50 was determined through an in vitro assay based on LANCE Ultra TR-FRET (Time-Resolved Fluorescence Resonance Energy Transfer) homogeneous technologies method (Perkin Elmer). […] Compound activities were measured by Envision and IC50s were calculated. […] The reaction was incubated for 1 hour, and the signal was read in Envision in TR-FRET mode (excitation at 320 nm and emission at 615/665 nm). […]
pIC50: −log10 of the molar value.
RECORDED ENDPOINT: pIC50

                                   compound  recorded_endpoint  result_value
0  CNC(=O)c1cccc(Cn2ccc3cc(-c4ccncc4)ccc3c2=O)c1 [Compound 325]              pIC50  7.00 to 8.00

Given the compound CNC(=O)c1cccc([C@@H](C)n2cnc3cc(-c4ccnn4C)ccc3c2=O)c1 [Compound 476] , write its reported pIC50. > 8.00

Name the recorded pIC50 of the item CCNC(=O)c1cc(F)cc(Cn2ccc3cc(-c4c[nH]nc4C)ncc3c2=O)c1 [Compound 254] in your answer. > 8.00

For the compound O=C(Nc1ccon1)c1cccc(Cn2cnc3cc(-c4cn[nH]c4C(F)(F)F)ccc3c2=O)c1 [Compound 375] , give its reported pIC50. 7.00 to 8.00

Input COc1cccc([C@@H](CO)N2CNc3cc(-c4cnoc4C)ccc3C2=O)c1 [Compound 529] , output reported pIC50. < 6.30

* * *

Quick list: pIC50 per entry.
- TARGET OF ASSAY: Recombinant ROCK2 (amino acids 5-554) (Homo sapiens, UniProt O75116)
- Construct: ROCK2 (amino acids 5-554); by word order, ROCK2 from SignalChem
- Sequence (O75116 5-554): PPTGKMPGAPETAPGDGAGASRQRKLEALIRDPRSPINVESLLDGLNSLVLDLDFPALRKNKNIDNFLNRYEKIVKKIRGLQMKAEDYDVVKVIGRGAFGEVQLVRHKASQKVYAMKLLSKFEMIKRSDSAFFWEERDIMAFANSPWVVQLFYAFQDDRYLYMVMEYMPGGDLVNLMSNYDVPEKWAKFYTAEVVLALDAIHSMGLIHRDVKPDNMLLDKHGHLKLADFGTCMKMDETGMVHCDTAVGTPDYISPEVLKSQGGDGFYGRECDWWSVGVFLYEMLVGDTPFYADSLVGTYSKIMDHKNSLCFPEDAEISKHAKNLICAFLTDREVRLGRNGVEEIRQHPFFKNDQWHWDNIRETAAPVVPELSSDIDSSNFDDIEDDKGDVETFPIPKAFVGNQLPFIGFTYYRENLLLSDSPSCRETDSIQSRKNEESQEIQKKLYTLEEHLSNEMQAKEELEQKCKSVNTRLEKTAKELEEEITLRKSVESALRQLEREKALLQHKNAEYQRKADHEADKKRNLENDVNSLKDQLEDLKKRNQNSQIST
- TEST SUMMARY: ROCK inhibition assay, LANCE Ultra TR-FRET kinase assay (ROCK2)
- RUN CONDITIONS: 4 μM ATP, 50 nM ULight-CREBtide substrate
- Procedure: Kinase IC50 was determined through an in vitro assay based on LANCE Ultra TR-FRET (Time-Resolved Fluorescence Resonance Energy Transfer) homogeneous technologies method (Perkin Elmer). […] Compound activities were measured by Envision and IC50s were calculated. […] The reaction was incubated for 1 hour, and the signal was read in Envision in TR-FRET mode (excitation at 320 nm and emission at 615/665 nm). […]
pIC50: −log10 of the molar value.

Example cases with answers are listed next.
In [3]: df
Out[3]:
                                   molecule  recorded_endpoint  result_value
0  [2H]C([2H])([2H])NC(=O)c1cccc([C@@H](C)n2cnc3cc(-c4conc4C)ccc3c2=O)c1              pIC50        > 8.00
1  CNC(=O)c1cccc(C(C)n2cc(CCO)c3cc(-c4conc4C)ccc3c2=O)c1 (stereo not shown)              pIC50  7.00 to 8.00
2  CNC(=O)c1cccc(Cn2cc(CCO)c3cc(-c4cn[nH]c4Cl)ccc3c2=O)c1              pIC50        > 8.00

Give the value of pIC50 reported for the following: O=C(NCc1ccnc(F)c1)c1cccc(Cn2cnc3cc(-c4cn[nH]c4C(F)F)ccc3c2=O)c1 > 8.00

* * *

- TARGET OF ASSAY: Recombinant ROCK1 (amino acids 1-477) (Homo sapiens, UniProt Q13464)
- Construct: Recombinant ROCK1 (amino acids 1-477); by word order, ROCK1 from Carna Biosciences
- Sequence (Q13464 1-477): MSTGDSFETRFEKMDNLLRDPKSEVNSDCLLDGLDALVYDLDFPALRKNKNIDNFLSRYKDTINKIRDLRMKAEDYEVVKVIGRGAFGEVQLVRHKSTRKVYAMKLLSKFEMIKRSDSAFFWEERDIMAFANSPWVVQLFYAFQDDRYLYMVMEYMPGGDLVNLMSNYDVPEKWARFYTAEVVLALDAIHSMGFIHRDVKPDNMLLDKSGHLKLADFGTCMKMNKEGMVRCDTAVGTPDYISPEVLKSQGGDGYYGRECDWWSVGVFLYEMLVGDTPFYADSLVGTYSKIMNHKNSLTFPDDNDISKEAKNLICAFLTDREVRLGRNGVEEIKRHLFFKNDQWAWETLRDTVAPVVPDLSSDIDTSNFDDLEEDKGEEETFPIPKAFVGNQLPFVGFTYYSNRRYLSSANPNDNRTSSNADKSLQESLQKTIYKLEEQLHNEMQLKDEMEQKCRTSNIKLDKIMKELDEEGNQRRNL
- TEST SUMMARY: ROCK inhibition assay, LANCE Ultra TR-FRET kinase assay (ROCK1)
- RUN CONDITIONS: 1 μM ATP, 50 nM ULight-CREBtide substrate
# reported IC50; entries follow

Below: 5 compounds and their reported IC50.
In [3]: df
Out[3]:
                                   compound   result_value
0  CNC(=O)c1cccc([C@H](C)n2cnc3cc(-c4cn[nH]c4Cl)ccc3c2=O)c1  101 to 500 nM
1  C[C@H](c1cccc(C(=O)NC2CC2)c1)n1cnc2cc(-c3cn[nH]c3N)ccc2c1=O   11 to 100 nM
2  Nc1cc(-c2ccc3c(=O)n(Cc4cccc(C(=O)NCc5ccccc5)c4)ccc3c2)ccn1  101 to 500 nM
3  Cc1nocc1-c1ccc2c(=O)n(Cc3cccc(C(=O)N[C@H]4CC[C@H](O)CC4)c3)ccc2c1  101 to 500 nM
4  CNC(=O)c1cccc(Cn2ccc3cc(-c4cn[nH]c4Cl)ccc3c2=O)c1   11 to 100 nM

Output IC50 of O=C(N[C@H]1CC[C@@H](O)CC1)c1cccc(Cn2cnc3cc(-c4cn[nH]c4C(F)(F)F)ccc3c2=O)c1 11 to 100 nM

Fill in IC50 for record Cc1nocc1-c1ccc2c(=O)n(Cc3cc(F)cc(NC(=O)c4ccccn4)c3)ccc2c1 101 to 500 nM

Provide one value: measured IC50 of Cn1ccc(NC(=O)c2cc(F)cc(Cn3ccc4cc(-c5cn[nH]c5C(F)(F)F)ccc4c3=O)c2)n1 11 to 100 nM

Look up and report measured IC50 for this entry: COc1cccc(C(CO)n2cnc3cc(-c4cn[nH]c4Cl)ccc3c2=O)c1 (stereo not drawn) 11 to 100 nM

* * *

- TARGET OF ASSAY: Recombinant ROCK2 (amino acids 5-554) (Homo sapiens, UniProt O75116)
- Construct: ROCK2 (amino acids 5-554); by word order, ROCK2 from SignalChem
- TEST SUMMARY: ROCK inhibition assay, LANCE Ultra TR-FRET kinase assay (ROCK2)
- RUN CONDITIONS: 4 μM ATP, 50 nM ULight-CREBtide substrate
Listing of recorded IC50 by entry.

>>> print(df.to_string())
                                   compound                           target_of_assay  recorded_endpoint   result_value
0  NCC(c1cccc(C(N)=O)c1)n1cnc2cc(-c3cn[nH]c3Cl)ccc2c1=O (centres unmarked) [Compound 508]  Recombinant ROCK2 (amino acids 5-554) (Homo sapiens, UniProt O75116)               IC50  100 to 500 nM
1  CN1CCC(CNC(=O)c2cc(F)cc(Cn3ccc4cc(-c5ccnn5C)ccc4c3=O)c2)CC1 [Compound 172]  Recombinant ROCK2 (amino acids 5-554) (Homo sapiens, UniProt O75116)               IC50        < 10 nM
2  O=C(NCC1CCN(C2CC2)CC1)c1cccc(Cn2ccc3cc(N4CCOCC4)ccc3c2=O)c1 [Compound 225]  Recombinant ROCK2 (amino acids 5-554) (Homo sapiens, UniProt O75116)               IC50   10 to 100 nM

Check the records and state IC50 for O=C(N[C@H]1CC[C@H](O)CC1)c1cc(F)cc(Cn2ccc3cc(-c4c[nH]nc4C(F)(F)F)ncc3c2=O)c1 [Compound 260] < 10 nM

Name the recorded IC50 of the item O=C(NCC1COC1)c1cccc(Cn2ccc3cc(-c4c[nH]nc4Cl)ccc3c2=O)c1 [Compound 63] in your answer. < 10 nM

Return IC50 for the following compound: CNC(=O)c1cccc(Cn2cnc3cc(-c4cn[nH]c4C(F)F)ccc3c2=O)c1 [Compound 391] < 10 nM

Query IC50 for O=C(N[C@H]1CC[C@@H](O)CC1)c1cc(F)cc(Cn2ccc3cc(-c4c[nH]nc4C(F)F)ncc3c2=O)c1 [Compound 275] < 10 nM

Look up and state reported IC50 for CNC(=O)c1cc(F)cc(C(C)n2ccc3cc(-c4cn[nH]c4F)ccc3c2=O)c1 (centres unmarked) [Compound 298] < 10 nM

Provide one value: measured IC50 of Cc1nocc1-c1ccc2c(=O)n(Cc3cc(F)cc(C(=O)Nc4ccc5c(c4)CCNC5)c3)ccc2c1 [Compound 162] < 10 nM

Give the measured IC50 for O=C(NC1COC1)c1cccc(Cn2ccc3cc(N4CCOCC4)ccc3c2=O)c1 [Compound 207] 100 to 500 nM

Using the record for Cc1nocc1-c1ccc2c(=O)n(Cc3cc(F)cc(C(=O)Nc4nc5c(s4)CCN(C)C5)c3)ccc2c1 [Compound 158] , state its measured IC50. < 10 nM

* * *

Overview of reported pIC50 across a group of molecules:
- TARGET OF ASSAY: Recombinant ROCK2 (amino acids 5-554) (Homo sapiens, UniProt O75116)
- Construct: ROCK2 (amino acids 5-554); by word order, ROCK2 from SignalChem
- TEST SUMMARY: ROCK inhibition assay, LANCE Ultra TR-FRET kinase assay (ROCK2)
- RUN CONDITIONS: 4 μM ATP, 50 nM ULight-CREBtide substrate
pIC50: −log10 of the molar value.

Some molecules with known pIC50 results, for comparison:
>>> df
                                   molecule                           target_of_assay  recorded_endpoint  result_value
0  O=c1c2ccc(-c3ccncc3)cc2ncn1C(CO)c1cccc(Cl)c1 (stereo not shown) [Compound 483]  Recombinant ROCK2 (amino acids 5-554) (Homo sapiens, UniProt O75116)              pIC50  7.00 to 8.00
1  CNC(=O)c1cccc(Cn2cc(CCN(C)C)c3cc(-c4c[nH]nc4N)ccc3c2=O)c1 [Compound 567]  Recombinant ROCK2 (amino acids 5-554) (Homo sapiens, UniProt O75116)              pIC50        > 8.00
2  O=C(N[C@H]1CC[C@H](O)CC1)c1cccc(Cn2ccc3cc(N4CCOCC4)ccc3c2=O)c1 [Compound 213]  Recombinant ROCK2 (amino acids 5-554) (Homo sapiens, UniProt O75116)              pIC50  6.30 to 7.00
3  N#Cc1cccc(C(CN)n2cnc3cc(-c4cn[nH]c4C(F)(F)F)ccc3c2=O)c1 (stereo not shown) [Compound 503]  Recombinant ROCK2 (amino acids 5-554) (Homo sapiens, UniProt O75116)              pIC50  6.30 to 7.00
4  CNC(=O)c1cccc([C@@H](C)n2cnc3cc(-c4cn[nH]c4C(F)(F)F)ccc3c2=O)c1 [Compound 440]  Recombinant ROCK2 (amino acids 5-554) (Homo sapiens, UniProt O75116)              pIC50        > 8.00

Provide one value: measured pIC50 of COc1cccc(Cn2cnc3cc(-c4c[nH]nc4Cl)ccc3c2=O)c1 [Compound 362] > 8.00

Query pIC50 for CS(=O)(=O)Nc1ccc(NC(=O)c2cccc(Cn3cnc4cc(-c5cn[nH]c5C(F)(F)F)ccc4c3=O)c2)cc1 [Compound 385] 7.00 to 8.00
